Assay type: cell-based, Human
Details: human, HEK-293 cells, relative cell viability, 40 °C/No UV 2 h; 4 °C/No UV = 100 %
Readout kind: viability at 24 h (%)
A number alone suffices; assume %.

Can you share its viability at 24 h? I mean this molecule: CCOCN(C(=O)CCl)c1c(C)cccc1CC
56.6

Now the molecule CCc1cccc(CC)c1N(COC)C(=O)CCl
54.1

* * *

Format: cell-based, Human
Conditions: human, HEK-293 cells, relative cell viability, 40 °C/UV 254 nm 2 h; 4 °C/No UV = 100 %
Readout kind: viability at 24 h (%)
# unit: % | format: bare number

May I ask what viability at 24 h has been recorded for CCc1cccc(CC)c1N(COC)C(=O)CCl ?
87.9

Next: CCOCN(C(=O)CCl)c1c(C)cccc1CC
163
